System: A549
Test: Cell cycle arrest in human A549 cells assessed as accumulation at G1 phase at 64 uM after 48 hrs by propidium iodide staining-based flow cytometry relative to control
Format: functional
The entries below come with measured Activity values attached.
Number only, in %; omit the unit.

Illustrative cases are given below, each with its answer.
{"columns": ["chemical-structure", "endpoint-name", "value-observed"],
 "data": [
  ["O=C1c2cc(-c3ccc(Cl)cc3)nn2CCN1CCO", "Activity", 18],
  ["O=C1c2cc(-c3ccc(Cl)cc3)nn2CCN1CCN1CCOCC1", "Activity", 27],
  ["O=C1c2cc(-c3ccc(Cl)cc3)nn2CCN1CCOCCO", "Activity", 13]
]}

Let's switch to this compound now.
Q: State its Activity: O=C1c2cc(-c3ccc(Cl)cc3)nn2CCN1CCCO
Result: 32
